Source: patent US10208059B2

# Test system: 293T-HRE-GFP-luc cells
# assayMethodText: Cell-based reporter assay for IC50 determinations
# measurementParameters: hypoxia 6 hrs (1% O2), luminescence, read-out: IC50 Classification
pIC50: −log10 of the molar value.
Assignment: determine reported pIC50 for the given molecules.

Ask | Give the reported value of pIC50 for this record: Cc1nc(-c2ncc(-c3ccc(OC(F)(F)F)cc3)o2)nn1Cc1cccc(C(=O)N(C)C)c1 [Example 157]
Reply | 6.00 to 7.00

Ask | Give the reported value of pIC50 for this record: COCCCNC(=O)c1cccc(Cn2nc(-c3nc(-c4ccc(OC(F)(F)F)cc4)no3)nc2C)c1 [Example 14]
Reply | > 7.00

Ask | Give the reported value of pIC50 for this record: Cc1nc(-c2nc(-c3ccc(OC(F)(F)F)cc3)no2)nn1Cc1cccc(S(=O)(=O)NCC(C)(C)O)c1 [Example 138]
Reply | > 7.00

Ask | Give the reported value of pIC50 for this record: Cc1nc(-c2noc(-c3ccc(OC(F)(F)F)cc3)n2)nn1Cc1cccc(N2CCOCC2)c1 [Example 57]
Reply | > 7.00

Ask | Give the reported value of pIC50 for this record: Cc1nc(-c2nc(-c3ccc(OC(F)(F)F)cc3)no2)nn1Cc1cc[nH]c(=O)c1 [Example 75]
Reply | 6.00 to 7.00

Ask | Give the reported value of pIC50 for this record: Cc1nc(-c2nc(-c3ccc(OC(F)(F)F)cc3)no2)nn1Cc1cccc(C(=O)NC(C)(C)CO)c1 [Example 125]
Reply | > 7.00

Ask | Give the reported value of pIC50 for this record: Cc1nc(-c2nnc(-c3ccc(C(C)(C)C)cc3)o2)nn1Cc1cccc(N2CCN(C)CC2)c1 [Example 8]
Reply | > 7.00

Ask | Give the reported value of pIC50 for this record: Cc1nc(-c2nc(-c3ccc(OC(F)(F)F)cc3)no2)nn1Cc1cccc(OCCNC(=O)OC(C)(C)C)c1 [Example 67]
Reply | > 7.00

Ask | Give the reported value of pIC50 for this record: Cc1nc(-c2nc(-c3ccc(OC(F)(F)F)cc3)no2)nn1Cc1ccnc(N2CCOCC2)n1 [Example 55]
Reply | > 7.00

Ask | Give the reported value of pIC50 for this record: Cc1nc(-c2nc(-c3ccc(OC(F)(F)F)cc3)no2)nn1Cc1ccnc(OCCCO)c1 [Example 141]
Reply | > 7.00

Ask | Give the reported value of pIC50 for this record: Cc1nc(-c2nc(-c3ccc(OC(F)(F)F)cc3)no2)nn1Cc1ccnc(N2CCN(C)CC2)n1 [Example 20]
Reply | > 7.00

Ask | Give the reported value of pIC50 for this record: Cc1nc(-c2nc(-c3ccc(OC(F)(F)F)cc3)cs2)nn1Cc1cccc(N2CCN(C)CC2)c1 [Example 148]
Reply | > 7.00

Ask | Give the reported value of pIC50 for this record: COCCCNc1cccc(Cn2nc(-c3nc(-c4ccc(OC(F)(F)F)cc4)no3)nc2C)c1 [Example 53]
Reply | > 7.00

Ask | Give the reported value of pIC50 for this record: Cc1nc(-c2nc(-c3ccc(OC(F)(F)F)cc3)no2)nn1Cc1cccc(N2CCN(C(=O)CO)CC2)c1 [Example 83]
Reply | > 7.00

Ask | Give the reported value of pIC50 for this record: Cc1nc(-c2nc(-c3ccc(OC(F)F)cc3)no2)nn1Cc1ccnc(N2CCN(C)CC2)c1 [Example 23, bis-trifluoroacetate]
Reply | 6.00 to 7.00
